biological target: Voltage-gated inwardly rectifying potassium channel KCNH2 (Homo sapiens, UniProt Q12809)
Sequence (Q12809 whole entry): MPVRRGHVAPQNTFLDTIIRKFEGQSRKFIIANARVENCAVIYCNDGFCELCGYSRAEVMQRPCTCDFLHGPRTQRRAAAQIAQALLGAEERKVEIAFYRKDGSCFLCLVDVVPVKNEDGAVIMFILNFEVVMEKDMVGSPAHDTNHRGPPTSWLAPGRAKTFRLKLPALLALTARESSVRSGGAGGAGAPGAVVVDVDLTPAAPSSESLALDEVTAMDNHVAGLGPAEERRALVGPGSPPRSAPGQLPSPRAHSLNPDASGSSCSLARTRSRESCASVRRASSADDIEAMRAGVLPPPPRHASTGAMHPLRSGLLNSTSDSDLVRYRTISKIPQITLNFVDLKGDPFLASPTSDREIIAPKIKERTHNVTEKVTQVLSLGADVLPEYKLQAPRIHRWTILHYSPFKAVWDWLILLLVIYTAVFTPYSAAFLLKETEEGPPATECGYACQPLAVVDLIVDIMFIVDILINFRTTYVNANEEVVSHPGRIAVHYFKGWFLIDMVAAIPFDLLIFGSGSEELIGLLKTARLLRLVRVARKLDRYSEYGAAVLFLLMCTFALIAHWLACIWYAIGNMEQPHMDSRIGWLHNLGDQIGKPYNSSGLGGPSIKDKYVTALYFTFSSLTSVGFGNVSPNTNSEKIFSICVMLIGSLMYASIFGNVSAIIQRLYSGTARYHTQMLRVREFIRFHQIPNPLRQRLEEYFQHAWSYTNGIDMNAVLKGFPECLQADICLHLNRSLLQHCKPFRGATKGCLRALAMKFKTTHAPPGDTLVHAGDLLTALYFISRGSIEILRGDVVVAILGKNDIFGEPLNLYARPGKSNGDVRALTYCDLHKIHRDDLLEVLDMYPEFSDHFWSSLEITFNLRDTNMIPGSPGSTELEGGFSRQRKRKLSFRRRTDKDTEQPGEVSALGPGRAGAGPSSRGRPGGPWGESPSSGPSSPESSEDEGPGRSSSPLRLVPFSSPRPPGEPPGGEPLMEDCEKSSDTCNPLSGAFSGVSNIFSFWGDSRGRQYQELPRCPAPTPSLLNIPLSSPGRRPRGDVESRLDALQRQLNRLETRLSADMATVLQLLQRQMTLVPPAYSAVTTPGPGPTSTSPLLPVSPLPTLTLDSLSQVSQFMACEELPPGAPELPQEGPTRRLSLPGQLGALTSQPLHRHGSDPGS
pIC50: −log10 of the molar value.
MEASUREMENT KIND: pIC50

Output pIC50 of `COc1ccncc1C(=O)NC(=O)Nc1ccc(-c2ccccc2)c(C(F)(F)F)c1`
< 5.00

====

experiment: Solubility of the compound in simulated intestinal fluid; format: physicochemical
MEASUREMENT KIND: solubility (µg/mL)
Write the value in µg/mL as a bare number.

Would you please look over these solved cases?
COc1ccccc1C(=O)NC(=O)Nc1ccc(N2CCCCC2)c(C(F)(F)F)c1; 4.1
COc1ccccc1C(=O)NC(=O)Nc1ccc(-c2ccccc2)c(C(C)C)c1; 24
COc1ccccc1C(=O)NC(=O)Nc1ccc(C(C)C)c(C(F)(F)F)c1; 6.9

Find the measured solubility of `COc1ccccc1C(=O)NC(=O)Nc1ccc(-c2ccccc2)c(C(F)(F)F)c1` and report it.
23

Where these numbers come from: ChEMBL document CHEMBL2016555
